Test system: Mus musculus
test-protocol: Antidepressant activity in Swiss-Webster mouse assessed as prevention of reserpine-induced ptosis at 30 mg/kg, ip
Format: functional, organism-based
Design: dose 30 mg/kg
Active and inactive are the calls of the source. The rule behind the calls is not given here.
Classes to choose from: active, inactive

molecule | system-under-test | class-label
Cc1ccc(C)c2c3c([nH]c12)CCC(N(C)C)C3 (stereo not given) | Mus musculus | active
COc1ccc(Cl)c2c3c([nH]c12)CCC(N(C)C)C3 (stereo not given) | Mus musculus | active
CN(C)C1CCc2[nH]c3c(F)cc(F)cc3c2C1 (stereo not given) | Mus musculus | inactive
CN(C)C1CCc2[nH]c3cccc(C(F)(F)F)c3c2C1 (stereo not given) | Mus musculus | active
Cc1cc(Cl)cc2[nH]c3c(c12)CC(N(C)C)CC3 (stereo not given) | Mus musculus | active

Query: Please share the test call associated with CNC1CCc2[nH]c3ccccc3c2C1 (stereo not given) .
Result: active

Query: Please share the test call associated with CCn1c2c(c3ccccc31)CC(N(C)C)CC2 (stereo not given) .
Result: active

Query: Please share the test call associated with NC1CCc2[nH]c3ccccc3c2C1 (stereo not given) .
Result: active

Query: Please share the test call associated with COc1ccc2c3c([nH]c2c1)CCC(N(C)C)C3 (stereo not given) .
Result: active

Query: Please share the test call associated with CCOC(=O)c1cccc2[nH]c3c(c12)CC(N(C)C)CC3 (stereo not given) .
Result: active
